Test system: NCI-H2085 (Non-Small Cell Lung Carcinoma)
assay-protocol: Bliss excess, mean over the matrix (fraction); higher = more synergy
Please provide measured Bliss excess for the entries that follow.
Give the figure only, with no unit attached.

Param item = CC1(C)CCC(CN2CCN(c3ccc(C(=O)NS(=O)(=O)c4ccc(NCC5CCOCC5)c([N+](=O)[O-])c4)c(Oc4cnc5[nH]ccc5c4)c3)CC2)=C(c2ccc(Cl)cc2)C1 [Venetoclax] + Cn1cnc2c(F)c(Nc3ccc(Br)cc3Cl)c(C(=O)NOCCO)cc21 [Selumetinib] (first compound max 1 µM, 7x7, partner max 3 µM) ; retrieve measured Bliss excess.
-0.0271

Quick one: Bliss excess for C[C@@H](Oc1cc(-c2cnn(C3CCNCC3)c2)cnc1N)c1c(Cl)ccc(F)c1Cl [Crizotinib] + CC1=C(C(=CC=C1)Cl)NC(=O)C2=CN=C(S2)NC3=CC(=NC(=N3)C)N4CCN(CC4)CCO [Dasatinib] (first compound max 10 µM, 7x7, partner max 2 µM) ?
0.0551

Any idea what Bliss excess was measured for C=CCn1c(=O)c2cnc(Nc3ccc(N4CCN(C)CC4)cc3)nc2n1-c1cccc(C(C)(C)O)n1 [AZD1775] + CCc1c2c(nc3ccc(O)cc13)-c1cc3c(c(=O)n1C2)COC(=O)[C@]3(O)CC [SN-38] (first compound max 1 µM, partner max 0.3 µM) ?
-0.0202

###

Test system: LNCaP-Clone-FGC (Prostate Carcinoma)
assay-protocol: combination Emax (second highest fraction inhibited in the dose matrix, 72 h); higher = more inhibition; extreme values may be limits of the assay
Task for the reader: assign each of the following compounds its reported combination Emax.
Enter a number only.

Item under review: Cn1cnc2c(F)c(Nc3ccc(Br)cc3Cl)c(C(=O)NOCCO)cc21 [Selumetinib] + C=CCn1c(=O)c2cnc(Nc3ccc(N4CCN(C)CC4)cc3)nc2n1-c1cccc(C(C)(C)O)n1 [AZD1775] (first compound max 10 µM, partner max 1 µM) . Reported combination Emax?
0.625

GET /values?readout=combination Emax&item= C[C@@H](c1ccc2nccn2c1)n1nnc2ncc(-c3cnn(C)c3)nc21 [Savolitinib] + Cc1c2c(nn1C)CSCc1cc(n(C)n1)CSc1cc(c3ccccc3c1)OCCCc1c(C(=O)O)n(C)c3c-2c(Cl)ccc13 [AZD5991] (first compound max 1 µM, 7x7, partner max 1 µM)
0.163

###

Provide the reported Bliss excess of each item.
Tested on: HT-1376 (Bladder Carcinoma)
assay-protocol: Bliss excess, mean over the matrix (fraction); higher = more synergy
Answer field: number only, no words.

Notebook: pull reported Bliss excess for HT-1376 (Bladder Carcinoma), entry COc1cccc(OCCCN)c1-c1cc(Nc2cnc(C#N)cn2)n[nH]1 [Prexasertib] + CN(C)CCCOc1ccc(-c2ccc3ncc4c(c3c2)n(C2CCOCC2)c(=O)n4C)cn1 [AZD0156] (first compound max 1 µM, 7x7, partner max 1 µM)
-0.007

Short answer please: Bliss excess, HT-1376 (Bladder Carcinoma), entry Cc1c2c(nn1C)CSCc1cc(n(C)n1)CSc1cc(c3ccccc3c1)OCCCc1c(C(=O)O)n(C)c3c-2c(Cl)ccc13 [AZD5991] + C=CCn1c(=O)c2cnc(Nc3ccc(N4CCN(C)CC4)cc3)nc2n1-c1cccc(C(C)(C)O)n1 [AZD1775] (first compound max 1 µM, partner max 1 µM)
0.0345

Requested read-out Bliss excess, target or system HT-1376 (Bladder Carcinoma), entry C[C@@H](Oc1cc(-c2cnn(C3CCNCC3)c2)cnc1N)c1c(Cl)ccc(F)c1Cl [Crizotinib] + Cn1cnc2c(F)c(Nc3ccc(Br)cc3Cl)c(C(=O)NOCCO)cc21 [Selumetinib] (first compound max 10 µM, 7x7, partner max 10 µM)
-0.0419

So what Bliss excess did COc1nnc2ccc(N3CCC(c4ccc(OCCN5CCN(C)C(=O)[C@H]5C)cc4)CC3)nn12 [AZD5153] + Cn1cnc2c(F)c(Nc3ccc(Br)cc3Cl)c(C(=O)NOCCO)cc21 [Selumetinib] (first compound max 1 µM, 7x7, partner max 10 µM) get with HT-1376 (Bladder Carcinoma)?
0.0081

###

Test system: DoTc2-4510 (Cervical Carcinoma)
assay-protocol: Bliss excess, mean over the matrix (fraction); higher = more synergy
observable: Bliss excess

Need Bliss excess of Cc1cc2ncnn2cc1Nc1ncc2c(n1)n(C1CCOCC1)c(=O)n2C [AZD7648] + CN(C)CCCOc1ccc(-c2ccc3ncc4c(c3c2)n(C2CCOCC2)c(=O)n4C)cn1 [AZD0156] (first compound max 10 µM, 7x7, partner max 1 µM) , thanks.
0.0054

So what's the measured Bliss excess for this one? Cc1nc(Nc2ncc(C(=O)Nc3c(C)cccc3Cl)s2)cc(N2CCN(CCO)CC2)n1 [Dasatinib] + CC(=O)Nc1cccc(-n2c(=O)n(C3CC3)c(=O)c3c(Nc4ccc(I)cc4F)n(C)c(=O)c(C)c32)c1 [Trametinib] (first compound max 2 µM, 7x7, partner max 1 µM)
-0.0338

So what does the record say about Bliss excess for CC1(C)CCC(CN2CCN(c3ccc(C(=O)NS(=O)(=O)c4ccc(NCC5CCOCC5)c([N+](=O)[O-])c4)c(Oc4cnc5[nH]ccc5c4)c3)CC2)=C(c2ccc(Cl)cc2)C1 [Venetoclax] + C=CCn1c(=O)c2cnc(Nc3ccc(N4CCN(C)CC4)cc3)nc2n1-c1cccc(C(C)(C)O)n1 [AZD1775] (first compound max 1 µM, partner max 1 µM) ?
0.0075

###

System: LS-180 (Colorectal Carcinoma)
assay-protocol: combination Emax (second highest fraction inhibited in the dose matrix, 72 h); higher = more inhibition; extreme values may be limits of the assay
observable: combination Emax
Lab note: write the figure by itself, no unit.

Write down the reported combination Emax of CN(CCO)CC[C@H](CSc1ccccc1)Nc1ccc(S(=O)(=O)NC(=O)c2ccc(N3CCC([C@@H](O)c4ccccc4-c4ccc(Cl)cc4)CC3)cc2)cc1S(=O)(=O)C(F)(F)F [AZD4320] + C[C@@H](Nc1cc(F)cc(F)c1)c1cc(C(=O)N(C)C)cc2c(=O)cc(N3CCOCC3)oc12 [AZD8186] (first compound max 1 µM, 7x7, partner max 3 µM) , test system: LS-180 (Colorectal Carcinoma).
0.504

Form field: combination Emax recorded for CN(C)CCCOc1ccc(-c2ccc3ncc4c(c3c2)n(C2CCOCC2)c(=O)n4C)cn1 [AZD0156] + C=CCn1c(=O)c2cnc(Nc3ccc(N4CCN(C)CC4)cc3)nc2n1-c1cccc(C(C)(C)O)n1 [AZD1775] (first compound max 1 µM, partner max 1 µM) with LS-180 (Colorectal Carcinoma) (enter value)
0.452

Quick check: combination Emax on LS-180 (Colorectal Carcinoma), item C[C@@H](c1ccc2nccn2c1)n1nnc2ncc(-c3cnn(C)c3)nc21 [Savolitinib] + Cc1c2c(nn1C)CSCc1cc(n(C)n1)CSc1cc(c3ccccc3c1)OCCCc1c(C(=O)O)n(C)c3c-2c(Cl)ccc13 [AZD5991] (first compound max 1 µM, 7x7, partner max 1 µM) ?
0.199

###

Tested on: LB831-BLC (Bladder Carcinoma)
assay-protocol: combination Emax (second highest fraction inhibited in the dose matrix, 72 h); higher = more inhibition; extreme values may be limits of the assay
// label = satisfied if combination Emax is not less than 0.5, otherwise not satisfied

Say whether CC1(C)CCC(CN2CCN(c3ccc(C(=O)NS(=O)(=O)c4ccc(NCC5CCOCC5)c([N+](=O)[O-])c4)c(Oc4cnc5[nH]ccc5c4)c3)CC2)=C(c2ccc(Cl)cc2)C1 [Venetoclax] + C[C@@H](Nc1cc(F)cc(F)c1)c1cc(C(=O)N(C)C)cc2c(=O)cc(N3CCOCC3)oc12 [AZD8186] (first compound max 1 µM, 7x7, partner max 3 µM) shows combination Emax of 0.5 or more.
not satisfied

Please indicate if the recorded combination Emax for CN(C)CCCOc1ccc(-c2ccc3ncc4c(c3c2)n(C2CCOCC2)c(=O)n4C)cn1 [AZD0156] + C=CCn1c(=O)c2cnc(Nc3ccc(N4CCN(C)CC4)cc3)nc2n1-c1cccc(C(C)(C)O)n1 [AZD1775] (first compound max 1 µM, partner max 1 µM) meets or exceeds 0.5.
not satisfied

Hi, just wondering whether Cc1cc2ncnn2cc1Nc1ncc2c(n1)n(C1CCOCC1)c(=O)n2C [AZD7648] + C=CCn1c(=O)c2cnc(Nc3ccc(N4CCN(C)CC4)cc3)nc2n1-c1cccc(C(C)(C)O)n1 [AZD1775] (first compound max 10 µM, partner max 1 µM) shows combination Emax of 0.5 or higher.
not satisfied

Entry COc1nnc2ccc(N3CCC(c4ccc(OCCN5CCN(C)C(=O)[C@H]5C)cc4)CC3)nn12 [AZD5153] + Cc1c2c(nn1C)CSCc1cc(n(C)n1)CSc1cc(c3ccccc3c1)OCCCc1c(C(=O)O)n(C)c3c-2c(Cl)ccc13 [AZD5991] (first compound max 1 µM, 7x7, partner max 1 µM) : is its combination Emax no less than 0.5?
satisfied

Determine whether this compound has combination Emax no lower than 0.5: CN(CCO)CC[C@H](CSc1ccccc1)Nc1ccc(S(=O)(=O)NC(=O)c2ccc(N3CCC([C@@H](O)c4ccccc4-c4ccc(Cl)cc4)CC3)cc2)cc1S(=O)(=O)C(F)(F)F [AZD4320] + C=CCn1c(=O)c2cnc(Nc3ccc(N4CCN(C)CC4)cc3)nc2n1-c1cccc(C(C)(C)O)n1 [AZD1775] (first compound max 1 µM, partner max 1 µM)
satisfied

Is combination Emax at least 0.5? Consider CC1(C)CCC(CN2CCN(c3ccc(C(=O)NS(=O)(=O)c4ccc(NCC5CCOCC5)c([N+](=O)[O-])c4)c(Oc4cnc5[nH]ccc5c4)c3)CC2)=C(c2ccc(Cl)cc2)C1 [Venetoclax] + Cc1cc2ncnn2cc1Nc1ncc2c(n1)n(C1CCOCC1)c(=O)n2C [AZD7648] (first compound max 1 µM, 7x7, partner max 10 µM)
not satisfied

Please check the record C=CCn1c(=O)c2cnc(Nc3ccc(N4CCN(C)CC4)cc3)nc2n1-c1cccc(C(C)(C)O)n1 [AZD1775] + C1CN(CCC1(C(=O)N[C@@H](CCO)C2=CC=C(C=C2)Cl)N)C3=NC=NC4=C3C=CN4 [Capivasertib] (first compound max 3 µM, partner max 3 µM) and state if its combination Emax is at or above 0.5.
satisfied
